What log10 of IC50 at 3 days was measured for each of the following?
assay: In Vitro Cytotoxicity Assay HL60 (CellTiter-Glo); format: cell-based; conditions: human, HL60 promyelocytic leukemia cells; HL 60 cells, cultured three days
// do not treat as linear: log10 of IC50 at 3 days, unit nM

(Q) Need log10 of IC50 at 3 days, item Nc1ncncc1-c1nc(-c2cccc(NC(=O)c3cccc(CNCCO)c3)c2)cs1 [Compound 56]
(A) 3.30

(Q) Need log10 of IC50 at 3 days, item Nc1ncncc1-c1nc(-c2cccc(NC(=O)Nc3cccc(C(F)(F)F)c3)c2)cs1 [Compound 39]
(A) 3.00

(Q) Need log10 of IC50 at 3 days, item Nc1ncncc1-c1nc(-c2cccc(NC(=O)Nc3ccc(F)c(C(F)(F)F)c3)c2)cs1 [Compound 10]
(A) 2.70

(Q) Need log10 of IC50 at 3 days, item Nc1ncncc1-c1nc(-c2cccc(NC(=O)c3ccc(-c4ccccc4)cc3)c2)cs1 [Compound 15]
(A) 3.00

(Q) Need log10 of IC50 at 3 days, item Nc1ncncc1-c1nc(-c2cccc(NC(=O)Nc3ccccc3Cl)c2)cs1 [Compound 18]
(A) 2.70

(Q) Need log10 of IC50 at 3 days, item Cc1cccc(NC(=O)Nc2cccc(-c3csc(-c4cncnc4N)n3)c2)c1 [Compound 17]
(A) 2.48

(Q) Need log10 of IC50 at 3 days, item COc1ccc(NC(=O)Nc2cccc(-c3csc(-c4cncnc4N)n3)c2)cc1 [Compound 14]
(A) 2.48

(Q) Need log10 of IC50 at 3 days, item Nc1ncncc1-c1nc(-c2cccc(NC(=O)Nc3cccc(F)c3)c2)cs1 [Compound 12]
(A) 2.00

###

What log10 of IC50 at 3 days was measured for each of the following?
test: In Vitro Cytotoxicity Assay HL60 (CellTiter-Glo); format: cell-based; conditions: human, HL60 promyelocytic leukemia cells; HL 60 cells, cultured three days
// do not treat as linear: log10 of IC50 at 3 days, unit µM

(Q) Need log10 of IC50 at 3 days, item "CN(C)Cc1cccc(C(=O)Nc2cccc(-c3csc(-c4cncnc4N)n3)c2)c1"
(A) -0.40

(Q) Need log10 of IC50 at 3 days, item "Nc1ncncc1-c1nc(-c2cccc(NC(=O)c3ccc(F)c(F)c3)c2)cs1"
(A) 1.30

(Q) Need log10 of IC50 at 3 days, item "Cc1ccc(NC(=O)Nc2cccc(-c3csc(-c4cncnc4N)n3)c2)cc1C"
(A) 0.60

(Q) Need log10 of IC50 at 3 days, item "Nc1ncncc1-c1nc(-c2cccc(NC(=O)Nc3ccccc3C(F)(F)F)c2)cs1"
(A) -0.15

(Q) Need log10 of IC50 at 3 days, item "Nc1ncncc1-c1nc(-c2cccc(NC(=O)c3cccc(CN4CCOCC4)c3)c2)cs1"
(A) 0.00

(Q) Need log10 of IC50 at 3 days, item "Nc1ncncc1-c1nc(-c2cccc(NC(=O)c3ccccc3)c2)cs1"
(A) 0.48

(Q) Need log10 of IC50 at 3 days, item "COc1ccccc1NC(=O)Nc1cccc(-c2csc(-c3cncnc3N)n2)c1"
(A) -0.40

(Q) Need log10 of IC50 at 3 days, item "Nc1ncncc1-c1nc(-c2cccc(NC(=O)c3ccc(Cl)cc3)c2)cs1"
(A) -0.52

###

biological target: VEGFR2 kinase (Homo sapiens, UniProt P35968); construct: purchased InVitrogen; experiment: In Vitro VEGFR2 Kinase Assay; assay type: biochemical; conditions: FP; CSKtide substrate, 60 minutes at room temperature
Sequence (P35968 20-1356): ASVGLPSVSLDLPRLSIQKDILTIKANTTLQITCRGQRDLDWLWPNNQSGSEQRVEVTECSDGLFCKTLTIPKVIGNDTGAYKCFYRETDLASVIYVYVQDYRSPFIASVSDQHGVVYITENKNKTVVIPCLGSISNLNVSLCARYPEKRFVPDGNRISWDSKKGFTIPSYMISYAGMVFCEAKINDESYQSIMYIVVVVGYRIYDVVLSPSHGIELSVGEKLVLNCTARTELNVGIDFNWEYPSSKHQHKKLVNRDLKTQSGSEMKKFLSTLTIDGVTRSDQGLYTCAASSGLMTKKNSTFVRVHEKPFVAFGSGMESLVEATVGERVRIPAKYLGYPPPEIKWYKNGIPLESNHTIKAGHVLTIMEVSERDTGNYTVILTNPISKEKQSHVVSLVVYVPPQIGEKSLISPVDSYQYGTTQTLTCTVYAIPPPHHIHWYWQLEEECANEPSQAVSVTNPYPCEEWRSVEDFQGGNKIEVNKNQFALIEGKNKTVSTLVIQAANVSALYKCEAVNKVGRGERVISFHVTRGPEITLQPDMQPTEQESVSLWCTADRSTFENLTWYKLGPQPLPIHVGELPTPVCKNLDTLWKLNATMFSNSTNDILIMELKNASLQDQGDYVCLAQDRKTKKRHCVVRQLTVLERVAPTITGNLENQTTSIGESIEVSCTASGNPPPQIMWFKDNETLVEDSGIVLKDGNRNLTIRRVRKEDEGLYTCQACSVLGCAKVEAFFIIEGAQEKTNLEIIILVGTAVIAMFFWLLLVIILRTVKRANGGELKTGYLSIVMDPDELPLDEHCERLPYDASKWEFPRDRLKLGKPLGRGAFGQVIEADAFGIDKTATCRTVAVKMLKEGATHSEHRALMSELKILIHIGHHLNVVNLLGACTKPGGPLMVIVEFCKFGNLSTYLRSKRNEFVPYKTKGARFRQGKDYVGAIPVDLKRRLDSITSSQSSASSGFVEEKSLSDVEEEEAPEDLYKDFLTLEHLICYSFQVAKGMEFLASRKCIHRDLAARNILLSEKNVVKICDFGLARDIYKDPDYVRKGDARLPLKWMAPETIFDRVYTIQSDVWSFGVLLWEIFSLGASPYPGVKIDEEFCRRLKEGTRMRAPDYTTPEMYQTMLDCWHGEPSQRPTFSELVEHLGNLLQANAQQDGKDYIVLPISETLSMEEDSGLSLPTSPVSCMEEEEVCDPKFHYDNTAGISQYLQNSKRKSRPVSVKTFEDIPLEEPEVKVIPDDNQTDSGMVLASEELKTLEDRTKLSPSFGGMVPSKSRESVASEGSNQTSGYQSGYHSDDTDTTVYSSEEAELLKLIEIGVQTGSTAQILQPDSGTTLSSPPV
RESULT_TYPE: IC50
Hey, just the number and the unit after it is fine.

(Q) Need IC50, item Nc1ncncc1-c1nc(-c2cccc(NC(=O)Nc3ccccc3[N+](=O)[O-])c2)cs1 [Compound 33]
(A) 50 nM

(Q) Need IC50, item Nc1ncncc1-c1nc(-c2cccc(NC(=O)Nc3cccc(F)c3)c2)cs1 [Compound 12]
(A) 100 nM

(Q) Need IC50, item Nc1ncncc1-c1nc(-c2cccc(NC(=O)Nc3ccc(Cl)c(C(F)(F)F)c3)c2)cs1 [Compound 22]
(A) 20 nM

(Q) Need IC50, item Nc1ncncc1-c1nc(-c2cccc(NC(=O)CN3CCCCC3)c2)cs1 [Compound 67]
(A) 300 nM

(Q) Need IC50, item Cc1ccc(NC(=O)Nc2cccc(-c3csc(-c4cncnc4N)n3)c2)cc1Cl [Compound 11]
(A) 10 nM

(Q) Need IC50, item Nc1ncncc1-c1nc(-c2cccc(NC(=O)c3cccc(Cl)c3)c2)cs1 [Compound 6]
(A) 20 nM

(Q) Need IC50, item Cc1cccc(NC(=O)Nc2cccc(-c3csc(-c4cncnc4N)n3)c2)c1 [Compound 17]
(A) 10 nM

(Q) Need IC50, item Nc1ncncc1-c1nc(-c2cccc(NC(=O)c3ccc(F)c(F)c3)c2)cs1 [Compound 9]
(A) 300 nM

###

assay: In Vitro Cytotoxicity Assay HL60 (CellTiter-Glo); type: cell-based; conditions: human, HL60 promyelocytic leukemia cells; HL 60 cells, cultured three days
What IC50 at 3 days was measured for each of the following?
Quick note: give the figure in nM, leave out the unit.

(Q) Need IC50 at 3 days, item "Nc1ncncc1-c1nc(-c2cccc(NC(=O)Nc3ccc(Cl)c(C(F)(F)F)c3)c2)cs1"
(A) 1000

(Q) Need IC50 at 3 days, item "Nc1ncncc1-c1nc(-c2ccc(NC(=O)Nc3cccc(C(F)(F)F)c3)cc2)cs1"
(A) 900

(Q) Need IC50 at 3 days, item "CCc1ccc(NC(=O)Nc2cccc(-c3csc(-c4cncnc4N)n3)c2)cc1"
(A) 1000

(Q) Need IC50 at 3 days, item "Nc1ncncc1-c1nc(-c2cccc(NC(=O)NC3CCCCC3)c2)cs1"
(A) 1000

(Q) Need IC50 at 3 days, item "Nc1ncncc1-c1nc(-c2cccc(NC(=O)Nc3ccc4c(c3)OCO4)c2)cs1"
(A) 300

###

experiment: In Vitro Cytotoxicity Assay HCT116 (CellTiter-Glo); format: cell-based; conditions: human, HCT116 colon carcinoma cells, cultured three days
RESULT_TYPE: IC50 at 3 days (µM)
Quick note: give the figure in µM, leave out the unit.

(Q) Need IC50 at 3 days, item "Nc1ncncc1-c1nc(-c2cccc(NC(=O)Nc3cccc(CN4CCOCC4)c3)c2)cs1"
(A) 8

(Q) Need IC50 at 3 days, item "Cc1cccc(NC(=O)c2cccc(-c3csc(-c4cncnc4N)n3)c2)c1"
(A) 10

(Q) Need IC50 at 3 days, item "Nc1ncncc1-c1nc(-c2cccc(NC(=O)Nc3ccccc3Cl)c2)cs1"
(A) 30

###

What IC50 at 3 days was measured for each of the following?
experiment: In Vitro Cytotoxicity Assay HCT116 (CellTiter-Glo); assay type: cell-based; conditions: human, HCT116 colon carcinoma cells, cultured three days
Quick note: give the figure in µM, leave out the unit.

(Q) Need IC50 at 3 days, item "Cc1cccc(NC(=O)Nc2cccc(-c3csc(-c4cncnc4N)n3)c2)c1"
(A) 1

(Q) Need IC50 at 3 days, item "Nc1ncncc1-c1nc(-c2cccc(NC(=O)NC3CCCCC3)c2)cs1"
(A) 8

(Q) Need IC50 at 3 days, item "Nc1ncncc1-c1nc(-c2cccc(NC(=O)Nc3ccc(F)c(C(F)(F)F)c3)c2)cs1"
(A) 2

(Q) Need IC50 at 3 days, item "Nc1ncncc1-c1nc(-c2cccc(NC(=O)c3ccc(-c4ccccc4)cc3)c2)cs1"
(A) 3

(Q) Need IC50 at 3 days, item "Cc1ccc(NC(=O)Nc2cccc(-c3csc(-c4cncnc4N)n3)c2)cc1Cl"
(A) 3

(Q) Need IC50 at 3 days, item "Nc1ncncc1-c1nc(-c2cccc(NC(=O)Nc3cccc(Cl)c3)c2)cs1"
(A) 1

(Q) Need IC50 at 3 days, item "CC(C)(O)c1cccc(NC(=O)Nc2cccc(-c3csc(-c4cncnc4N)n3)c2)c1"
(A) 5

(Q) Need IC50 at 3 days, item "Nc1ncncc1-c1nc(-c2cccc(NC(=O)c3ccc(Cl)cc3)c2)cs1"
(A) 20

(Q) Need IC50 at 3 days, item "Nc1ncncc1-c1nc(-c2cccc(NC(=O)Cc3ccccc3)c2)cs1"
(A) 30

(Q) Need IC50 at 3 days, item "CCOC(=O)c1cccc(NC(=O)Nc2cccc(-c3csc(-c4cncnc4N)n3)c2)c1"
(A) 4

(Q) Need IC50 at 3 days, item "COc1ccccc1NC(=O)Nc1cccc(-c2csc(-c3cncnc3N)n2)c1"
(A) 7

(Q) Need IC50 at 3 days, item "Nc1ncncc1-c1nc(-c2cccc(NC(=O)NC3CCCC3)c2)cs1"
(A) 7

(Q) Need IC50 at 3 days, item "COc1ccccc1C(=O)Nc1cccc(-c2csc(-c3cncnc3N)n2)c1"
(A) 10

(Q) Need IC50 at 3 days, item "Nc1ncncc1-c1nc(-c2cccc(NC(=O)Nc3cccc(CO)c3)c2)cs1"
(A) 30

###

experiment: In Vitro Cytotoxicity Assay HL60 (CellTiter-Glo); format: cell-based; conditions: human, HL60 promyelocytic leukemia cells; HL 60 cells, cultured three days
RESULT_TYPE: IC50 at 3 days

(Q) Need IC50 at 3 days, item Nc1ncncc1-c1nc(-c2cccc(NC(=O)c3cccc(Cl)c3)c2)cs1 [Compound 6]
(A) 3000 nM

(Q) Need IC50 at 3 days, item Cc1ccccc1NC(=O)Nc1cccc(-c2csc(-c3cncnc3N)n2)c1 [Compound 19]
(A) 900 nM

(Q) Need IC50 at 3 days, item Nc1ncncc1-c1nc(-c2cccc(NC(=O)NCc3ccccc3)c2)cs1 [Compound 58]
(A) 400 nM

(Q) Need IC50 at 3 days, item Nc1ncncc1-c1nc(-c2cccc(NC(=O)c3ccccn3)c2)cs1 [Compound 21]
(A) 4000 nM

(Q) Need IC50 at 3 days, item Nc1ncncc1-c1nc(-c2cccc(NC(=O)c3ccc([N+](=O)[O-])cc3)c2)cs1 [Compound 13]
(A) > 50000 nM

(Q) Need IC50 at 3 days, item Nc1ncncc1-c1nc(-c2cccc(NC(=O)Nc3ccccc3)c2)cs1 [Compound 4]
(A) 200 nM

(Q) Need IC50 at 3 days, item Nc1ncncc1-c1nc(-c2cccc(NC(=O)Nc3cccc(CN4CCOCC4)c3)c2)cs1 [Compound 46]
(A) 700 nM

(Q) Need IC50 at 3 days, item Nc1ncncc1-c1nc(-c2cccc(NC(=O)Nc3ccc(Cl)cc3)c2)cs1 [Compound 16]
(A) 1000 nM
